Tested on: SK-BR-3
Assay: normalised response (% of control), CellTiter-Glo; higher = more viable cells (100 = DMSO, 0 = benzethonium chloride kill control)
Conditions: incubation time: 72 h
Mark F for normalised response values under 90%, and T for everything at or above.

# example entries with known answers
• CCCC(CCC)C(=O)O [Valproic acid] (1000000 nM) = T
• C[C@@H]1C=C2C(=O)O[C@@H]3CC[C@H](C1)[C@]23O [Galiellalactone] (50000 nM) = T
• CN(c1ccccc1CNc1nc(Nc2ccc3c(c2)CC(=O)N3)ncc1C(F)(F)F)S(C)(=O)=O (10000 nM) = F

Lookup: Confirm if normalised response reported for the compound CS(=O)(=O)OCCCCOS(C)(=O)=O [Busulfan] (100000 nM) is 90% or above.
Found: T

Lookup: Confirm if normalised response reported for the compound COc1ccc(C2=N[C@@H](c3ccc(Cl)cc3)[C@@H](c3ccc(Cl)cc3)N2C(=O)N2CCNC(=O)C2)c(OC(C)C)c1 [Nutlin-3] (10000 nM) is 90% or above.
Found: T

Lookup: Confirm if normalised response reported for the compound COc1cccc2c1C(=O)c1c(O)c3c(c(O)c1C2=O)C[C@@](O)(C(C)=O)C[C@@H]3O[C@H]1C[C@H](N)[C@H](O)[C@H](C)O1 [Daunorubicin] (1000 nM) is 90% or above.
Found: F

----------
Test system: CAL-120
Test: drug sensitivity score (DSS), CellTox Green (DSS (AUC-based score)); higher = stronger drug effect (viability inhibition or cytotoxicity); extreme values may be limits of the assay
Details: incubation time: 72 h
Reported metric: drug sensitivity score

Guide cases for drug sensitivity score, answers given:
* COc1c(C)cnc(Cn2cnc3c(Cl)nc(N)nc32)c1C | 0
* Cn1c(=O)c(F)c(Nc2ccc(I)cc2F)c2c(=O)n(C[C@@H](O)CO)cnc21 | 0.284
* CCS(=O)(=O)c1cccc(-c2cc(C(=O)NC3CCN(C)CC3)c(C)c3[nH]c4ncc(C)cc4c23)c1 | 0
* O=c1[nH]cc(F)c(=O)[nH]1 | 0
* CC(=O)O[C@H]1C(=O)[C@@]2(C)[C@H]([C@H](OC(=O)c3ccccc3)[C@]3(O)C[C@H](OC(=O)[C@H](O)[C@@H](NC(=O)c4ccccc4)c4ccccc4)C(C)=C1C3(C)C)[C@]1(OC(C)=O)CO[C@@H]1C[C@@H]2O | 2.71
* O=C(c1ccc(OCCN2CCCCC2)cc1)c1c(-c2ccc(O)cc2)sc2cc(O)ccc12 | 1.42

Let's switch to this compound now.
Observed drug sensitivity score, CAL-120, FC(F)c1nc2ccccc2n1-c1nc(N2CCOCC2)nc(N2CCOCC2)n1 : 0

----------
System: DU-4475
Assay: normalised viability (% of control), CellTiter-Blue; higher = more viable cells (100 = DMSO, 0 = benzethonium chloride kill control)
Details: incubation time: 72 h
Reported metric: normalised viability (%)
One number for each entry, in %.

- CN1CCN(c2ccc3nc(-c4c(N)c5c(F)cccc5[nH]c4=O)[nH]c3c2)CC1 [Dovitinib] (1 nM): 113

Quick request: normalised viability for each listed item, please.
1. Cn1c(=O)c(F)c(Nc2ccc(I)cc2F)c2c(=O)n(C[C@@H](O)CO)cnc21 [TAK-733] (0.1 nM)
2. Cn1cnc2c(F)c(Nc3ccc(Br)cc3F)c(C(=O)NOCCO)cc21 [MEK-162] (0.1 nM)
3. COc1c(C)cnc(Cn2cnc3c(Cl)nc(N)nc32)c1C [BIIB021] (1 nM)
4. CCCC(CCC)C(=O)O [Valproic acid] (1 nM)

Found:
[112, 106, 87.7, 109]
